All figures here come from ChEMBL document CHEMBL1127116.

Target: Type-2 angiotensin II receptor (Rattus norvegicus, UniProt P35351)
Sequence (P35351 whole entry): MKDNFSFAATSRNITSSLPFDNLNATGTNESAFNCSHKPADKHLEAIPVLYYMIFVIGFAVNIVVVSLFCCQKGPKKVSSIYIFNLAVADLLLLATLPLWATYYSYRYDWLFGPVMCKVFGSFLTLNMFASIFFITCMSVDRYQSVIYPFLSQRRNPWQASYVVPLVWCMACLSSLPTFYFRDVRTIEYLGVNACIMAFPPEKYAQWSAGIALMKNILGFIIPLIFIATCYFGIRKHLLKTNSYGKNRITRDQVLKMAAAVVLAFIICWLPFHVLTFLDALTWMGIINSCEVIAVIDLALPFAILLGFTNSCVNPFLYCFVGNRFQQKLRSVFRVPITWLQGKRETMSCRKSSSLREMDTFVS
Test: Inhibition of Angiotensin II receptor, type 2 in rat midbrain using [125I]-Sar1,Ile8 angiotensin II binding assay
Kindly supply the reported pIC50 values for the records listed here.
Answers are plain numbers, as −log10 of the molar value.

Solved entries (count: 3):
CCCCCN(C(=O)N1CCN(C(=O)N(c2ccccc2)c2ccccc2)C[C@H]1C(=O)O)c1ccccc1: 7.70
CCCCCN(C)C(=O)N1CCN(C(=O)N(c2ccccc2)c2ccccc2)[C@H](C(=O)O)C1: 7.82
CCCCCN(CCCCC)C(=O)N1CCN(C(=O)N(c2ccccc2)c2ccccc2)[C@H](C(=O)O)C1: 8.85

Need pIC50 for each of these molecules.
1. CC1CN(C(=O)N(c2ccccc2)c2ccccc2)C(C)CN1C(=O)N(c1ccccc1)c1ccccc1 (stereo not drawn)
2. CN(C(=O)N1CCN(C(=O)N(c2ccccc2)c2ccccc2)[C@H](C(=O)O)C1)c1ccccc1
3. CCCCCN(CCCCC)C(=O)N1CCN(C(=O)N(c2ccccc2)c2ccccc2)CC1
4. CCCCCN(CCCCC)C(=O)N1CCN(C(=O)N(c2ccccc2)c2ccccc2)C[C@H]1C(=O)O

1: 8.00; 2: 6.77; 3: 7.15; 4: 7.64

// Input: CCCCCN(CCCCC)C(=O)N1CCN(C(=O)N(c2ccccc2)c2ccc(C(=O)O)cc2)[C@H](C(=O)O)C1 . Output its pIC50 only.
6.74

###

Target: Type-1 angiotensin II receptor (Oryctolagus cuniculus, UniProt P34976)
Sequence (P34976 whole entry): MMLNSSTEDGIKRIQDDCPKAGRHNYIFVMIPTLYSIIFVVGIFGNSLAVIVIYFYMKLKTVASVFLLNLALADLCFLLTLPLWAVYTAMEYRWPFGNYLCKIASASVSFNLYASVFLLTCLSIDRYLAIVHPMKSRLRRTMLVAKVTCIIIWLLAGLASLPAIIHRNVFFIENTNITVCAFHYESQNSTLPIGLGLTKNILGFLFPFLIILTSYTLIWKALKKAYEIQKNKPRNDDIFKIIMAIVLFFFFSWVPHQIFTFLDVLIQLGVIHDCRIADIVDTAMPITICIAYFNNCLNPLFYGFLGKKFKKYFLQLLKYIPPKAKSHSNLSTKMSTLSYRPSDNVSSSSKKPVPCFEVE
Test: Inhibition of angiotensin Angiotensin II receptor, type 1 in rabbit aorta using [125I-Sar1,Ile8] angiotensin II binding assay
Type: tissue-based
measurement name: IC50 (µM)
Give bare numbers, in µM.

Solved entries (count: 3):
CCCCCN(CCCCC)C(=O)N1CCN(C(=O)N(c2ccccc2)c2cccc(Cl)c2)[C@H](C(=O)O)C1: 5.1
CCCCCN(CCCCC)C(=O)N1CCN(C(=O)N(c2ccccc2)c2cccc(C)c2)[C@H](C(=O)O)C1: 10
CCCCCN(CCCCC)C(=O)N1CCN(C(=O)N(c2ccccc2)c2ccc(I)cc2)[C@H](C(=O)O)C1: 8.5

Need IC50 for each of these compounds.
1. CCCCCN(CCCCC)C(=O)N1CCN(C(=O)N(c2ccccc2)c2ccc(C(=O)O)cc2)[C@H](C(=O)O)C1
2. CCCCCN(CCCCC)C(=O)N1CCN(C(=O)N(c2ccccc2)c2ccc(O)cc2)[C@H](C(=O)O)C1

1: 1.4; 2: 10

###

Test: Oral bioavailability in rat
Type: ADME, organism-based
Settings: in vivo
measurement name: bioavailability (%)
Answers are plain numbers, in %.

// Input: O=C(O)[C@@H]1CN(C(=O)N(c2ccccc2)c2ccccc2)CCN1C(=O)N(c1ccccc1)c1ccccc1 . Output its bioavailability only.
21
